Parameter logFC.mWT.over.Lux: see the listing below.
Target: mouse ADAMTS7 (Mus musculus)
Construct: Full-length mouse Adamts7 1-1857 (Uniprot Q68SA9, WT or E373Q catalytic mutant); expressed in transfected cells; host or cells: Human Coronary Artery Smooth Muscle Cells (HCA-SMC, Lonza), adenovirus 50 MOI
Sequence (Q68SA9 221-1657): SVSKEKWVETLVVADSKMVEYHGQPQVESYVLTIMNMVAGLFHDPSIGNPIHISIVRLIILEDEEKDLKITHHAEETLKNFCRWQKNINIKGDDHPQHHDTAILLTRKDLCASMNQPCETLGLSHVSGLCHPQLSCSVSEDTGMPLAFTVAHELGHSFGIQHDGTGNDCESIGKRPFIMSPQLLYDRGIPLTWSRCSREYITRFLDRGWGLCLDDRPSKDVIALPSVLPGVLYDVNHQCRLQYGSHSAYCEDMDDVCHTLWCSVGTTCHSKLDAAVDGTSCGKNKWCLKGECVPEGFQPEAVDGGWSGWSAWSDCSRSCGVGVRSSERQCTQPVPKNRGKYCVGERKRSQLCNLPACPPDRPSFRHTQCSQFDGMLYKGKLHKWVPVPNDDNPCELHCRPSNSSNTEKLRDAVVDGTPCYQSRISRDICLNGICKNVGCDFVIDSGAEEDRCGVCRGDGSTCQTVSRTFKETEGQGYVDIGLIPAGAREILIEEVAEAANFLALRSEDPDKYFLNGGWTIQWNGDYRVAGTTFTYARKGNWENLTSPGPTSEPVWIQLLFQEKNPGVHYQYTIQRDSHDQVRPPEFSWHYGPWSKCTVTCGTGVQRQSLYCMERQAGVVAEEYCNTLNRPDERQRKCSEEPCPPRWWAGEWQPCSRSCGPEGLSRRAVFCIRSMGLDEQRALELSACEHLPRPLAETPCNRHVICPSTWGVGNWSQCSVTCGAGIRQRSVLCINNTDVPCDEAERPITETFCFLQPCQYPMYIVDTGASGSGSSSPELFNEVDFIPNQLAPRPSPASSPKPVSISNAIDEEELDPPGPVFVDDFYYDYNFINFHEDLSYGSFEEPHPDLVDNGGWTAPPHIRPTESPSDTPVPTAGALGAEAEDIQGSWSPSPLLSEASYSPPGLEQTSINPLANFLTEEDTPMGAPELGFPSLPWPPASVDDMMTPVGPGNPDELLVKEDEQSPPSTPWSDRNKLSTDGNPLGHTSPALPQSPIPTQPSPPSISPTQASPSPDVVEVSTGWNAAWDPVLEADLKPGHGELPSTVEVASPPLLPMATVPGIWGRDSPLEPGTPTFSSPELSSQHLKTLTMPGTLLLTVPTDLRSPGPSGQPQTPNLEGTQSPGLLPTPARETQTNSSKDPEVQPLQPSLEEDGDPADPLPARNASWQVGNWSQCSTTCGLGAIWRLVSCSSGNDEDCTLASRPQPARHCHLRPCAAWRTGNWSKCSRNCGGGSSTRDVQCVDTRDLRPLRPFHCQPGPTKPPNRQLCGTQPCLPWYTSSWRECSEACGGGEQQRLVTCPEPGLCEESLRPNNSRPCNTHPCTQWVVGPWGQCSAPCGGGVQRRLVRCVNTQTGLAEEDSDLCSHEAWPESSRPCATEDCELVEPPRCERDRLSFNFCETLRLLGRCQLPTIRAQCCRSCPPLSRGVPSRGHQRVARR
Experiment: TMT10 TAILS N-terminomics, SMC1 experiment (Ad-mADAMTS7 WT vs EQ vs Luc, technical replicates, trypsin digest)
Format: cell-based
Details: TAILS neo-N-terminal peptide abundance; log fold change, Ad-mADAMTS7 WT over Luc

>  <Substance>
LTBP1_540 (HQQVIPHVYPVAAKTQLGR; listed as Homo sapiens)

>  <logFC.mWT.over.Lux>
2.83

$$$$
>  <Substance>
POSTN_790 (FIEGGDGHLFEDEEIKR; listed as Homo sapiens)

>  <logFC.mWT.over.Lux>
0.87

$$$$
>  <Substance>
COL1A2_1028 (LQGLPGIAGHHGDQGAPGSVGPAGPR; listed as Homo sapiens)

>  <logFC.mWT.over.Lux>
1.51

$$$$
>  <Substance>
HSPG2_4021 (LNKDGSLR; listed as Homo sapiens)

>  <logFC.mWT.over.Lux>
0.70

$$$$
>  <Substance>
HTRA1_33 (LAAGCPDR; listed as Homo sapiens)

>  <logFC.mWT.over.Lux>
2.87

$$$$
>  <Substance>
FBLN2_259 (ALGPPAPVQAKAR; listed as Homo sapiens)

>  <logFC.mWT.over.Lux>
1.29

$$$$
>  <Substance>
POSTN_807 (LLQGDTPVR; listed as Homo sapiens)

>  <logFC.mWT.over.Lux>
1.10

$$$$
>  <Substance>
CCDC80_66 (LEEPNLQPLQR; listed as Homo sapiens)

>  <logFC.mWT.over.Lux>
3.84

$$$$
>  <Substance>
IGFBP7_101 (AAGGPGVSGVCVCKSR; listed as Homo sapiens)

>  <logFC.mWT.over.Lux>
3.99

$$$$
>  <Substance>
HSPG2_4004 (SAEPLALGR; listed as Homo sapiens)

>  <logFC.mWT.over.Lux>
0.88

$$$$
>  <Substance>
LTBP2_760 (SSGALPGPAER; listed as Homo sapiens)

>  <logFC.mWT.over.Lux>
1.54

$$$$
>  <Substance>
LTBP1_494 (SVQIHQVSR; listed as Homo sapiens)

>  <logFC.mWT.over.Lux>
2.61

$$$$
